Target: Steroid 17-alpha-hydroxylase/17,20 lyase (Homo sapiens, UniProt P05093)
Sequence (P05093 whole entry): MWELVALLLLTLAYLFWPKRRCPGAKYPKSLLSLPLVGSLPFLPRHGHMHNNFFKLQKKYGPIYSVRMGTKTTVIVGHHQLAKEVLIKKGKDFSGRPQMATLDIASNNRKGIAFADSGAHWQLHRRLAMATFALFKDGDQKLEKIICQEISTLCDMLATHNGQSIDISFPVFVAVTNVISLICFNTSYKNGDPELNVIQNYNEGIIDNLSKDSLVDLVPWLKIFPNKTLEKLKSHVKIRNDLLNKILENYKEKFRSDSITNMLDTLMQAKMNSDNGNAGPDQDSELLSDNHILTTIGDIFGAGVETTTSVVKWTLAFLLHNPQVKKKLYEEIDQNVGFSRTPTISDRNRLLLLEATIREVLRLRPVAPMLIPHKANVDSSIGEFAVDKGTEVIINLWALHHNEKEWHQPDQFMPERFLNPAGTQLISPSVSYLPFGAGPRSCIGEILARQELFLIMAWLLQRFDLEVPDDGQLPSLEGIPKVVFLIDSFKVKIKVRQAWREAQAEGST
Test: Inhibition of human CYP17 expressed in Escherichia coli coexpressed with cytochrome P450 reductase
pIC50: −log10 of the molar value.
value.type: pIC50

> print(dat)
                                   compound  value.type  value.qualifier  result.value
1  c1ccc(-c2ccc(C(c3ccccc3)n3ccnc3)cc2)cc1 (stereo unspecified)       pIC50                =          6.10
2  CC(C)(C)C(c1ccc(-c2ccccc2)cc1)n1ccnc1 (stereo unspecified)       pIC50                =          6.34
3  CCC(c1ccc(-c2ccc(N3CCOCC3)cc2)cc1)n1ccnc1 (stereo unspecified)       pIC50                =          5.66
4  CC(c1ccc(-c2ccccc2)cc1)n1ccnc1 (stereo unspecified)       pIC50                =          6.04
5     FC(F)(F)c1ccc(-c2ccc(Cn3ccnc3)cc2)cc1       pIC50                <          5.30
6  CCC(c1ccc(-c2ccc(C#N)cc2)cc1)n1ccnc1 (stereo unspecified)       pIC50                <          5.30
